src = patent US5045302A

assay-notes: Rat biodistribution of Tc-99m complexes
test-context: 2 min p.i.
Rule: Liver of 10 % Injected dose/organ or more gives 1; anything lower gives 0.

compound="CCOCCP(CCOC)CCP(CCOC)CCOCC (centres unmarked) [Compound 28]" classification=1
compound="C1COC(CP(CCCP(CC2CCCO2)CC2CCCO2)CC2CCCO2)C1 (centres unmarked) [Compound 35]" classification=1
compound="C1CC(CP(CCP(CC2CCOCC2)CC2CCOCC2)CC2CCOCC2)CCO1 [Compound 25]" classification=0
compound="COCCCP(CCCOC)CCP(CCCOC)CCCOC [Compound 3]" classification=0
compound="CCOCCOCCP(CCOCCOCC)CCP(CCOCCOCC)CCOCCOCC [Compound 8]" classification=1
compound="CCCOCCP(CCOC)CCP(CCOC)CCOCCC (centres unmarked) [Compound 29]" classification=1

Query: Is the recorded value of Liver equal to or greater than 10 % Injected dose/organ for this compound? CCOCCP(CCOC(C)C)CCP(CCOCC)CCOC(C)C (centres unmarked) [Compound 31]
Result: 1

Query: Request: COC(C)CP(CCP(CC(C)OC)CC(C)OC)CC(C)OC (centres unmarked) [Compound 11]
Result: 1

Query: Also COC(CCP(CCC(OC)OC)CCP(CCC(OC)OC)CCC(OC)OC)OC [Compound 19] ?
Result: 0

Query: What do you have for CCOCCP(CCOCC)CC(CP(CCOCC)CCOCC)OC [Compound 36] ?
Result: 1

Query: Would you kindly repeat that for COCC(COC)CP(CCP(CC(COC)COC)CC(COC)COC)CC(COC)COC [Compound 17] ?
Result: 1

Query: Can you check COCC(C)CP(CCP(CC(C)COC)CC(C)COC)CC(C)COC (centres unmarked) [Compound 14] next?
Result: 0

Query: # repeat for CCOC=CP(C=COCC)CCP(C=COCC)C=COCC [Compound 6]
Result: 1

Query: What do you get for CCOCP(CCP(COCC)COCC)COCC [Compound 5] ?
Result: 1

Query: For CCOC(C)CP(CCP(CC(C)OCC)CC(C)OCC)CC(C)OCC (centres unmarked) [Compound 13] then?
Result: 1

Query: Entry to check: COC(C)CCP(CCC(C)OC)CCP(CCC(C)OC)CCC(C)OC (centres unmarked) [Compound 15]
Result: 0

Query: What do you have for CCOC(CCP(CCC(OCC)OCC)CCP(CCC(OCC)OCC)CCC(OCC)OCC)OCC [Compound 20] ?
Result: 1

Query: Please give the result for CCOCCCP(CCCOCC)CCP(CCCOCC)CCCOCC [Compound 4] too.
Result: 1

Query: Same question for CC1(C)OCC(CP(CCP(CC2COC(C)(C)O2)CC2COC(C)(C)O2)CC2COC(C)(C)O2)O1 (centres unmarked) [Compound 22] please.
Result: 1

Query: One more compound: CCOCCP(CCOCC)CCP(CCOCC)CCOCC [Compound 1, (EtOC2 H4)2 P--C2 H4 --P(C2 H4 OEt)2]
Result: 1

Query: Also C1COC(CP(CCP(CC2CCCO2)CC2CCCO2)CC2CCCO2)C1 (centres unmarked) [Compound 24] ?
Result: 1

Query: Same question for CCOCCP(CCOCC)c1ccccc1P(CCOCC)CCOCC [Compound 37] please.
Result: 1

Query: Next entry: COC(C)(C)CCP(CCP(CCC(C)(C)OC)CCC(C)(C)OC)CCC(C)(C)OC [Compound 16]
Result: 1

----------
assay-notes: Rat biodistribution of Tc-99m complexes
test-context: 60 min p.i.
experimental-readout: Blood (% Injected dose/organ)
Answers are plain numbers, in % Injected dose/organ.

Some compounds with known Blood results, for comparison:
smiles_representation=COCCCP(CCCOC)CCP(CCCOC)CCCOC experimental_readout=Blood measurement_units="% Injected dose/organ" numeric_readout=0.77
smiles_representation=CCOCCP(CCOCC)c1ccccc1P(CCOCC)CCOCC experimental_readout=Blood measurement_units="% Injected dose/organ" numeric_readout=3.25

Turning now to a further record.
Query: Item under review: COC(C)(C)CCP(CCP(CCC(C)(C)OC)CCC(C)(C)OC)CCC(C)(C)OC . Reported Blood?
Result: 1.58

----------
Provide the recorded Blood for the entries that follow.
assay-notes: Rat biodistribution of Tc-99m complexes
test-context: 60 min p.i.
Answers are plain numbers, in % Injected dose/organ.

Please review the following examples before continuing.
compound="CCOCCCP(CCOC)CCP(CCCOCC)CCOC (centres unmarked)" measurement_units="% Injected dose/organ" numeric_readout=0.34
compound=CCOCCOCCP(CCOCCOCC)CCP(CCOCCOCC)CCOCCOCC measurement_units="% Injected dose/organ" numeric_readout=1.69
compound="CCC(CP(CCP(CC(CC)OC)CC(CC)OC)CC(CC)OC)OC (centres unmarked)" measurement_units="% Injected dose/organ" numeric_readout=1.63
compound=COC(CCP(CCC(OC)OC)CCP(CCC(OC)OC)CCC(OC)OC)OC measurement_units="% Injected dose/organ" numeric_readout=0.88
compound="CCCOCCP(CCOC)CCP(CCOC)CCOCCC (centres unmarked)" measurement_units="% Injected dose/organ" numeric_readout=1.64
compound=COCC(COC)CP(CCP(CC(COC)COC)CC(COC)COC)CC(COC)COC measurement_units="% Injected dose/organ" numeric_readout=1.03
compound=CCOCCP(CCOCC)CC(CP(CCOCC)CCOCC)OC measurement_units="% Injected dose/organ" numeric_readout=2.18
compound=CCOCP(CCP(COCC)COCC)COCC measurement_units="% Injected dose/organ" numeric_readout=1.63
compound=CCOCP(CCCP(COCC)COCC)COCC measurement_units="% Injected dose/organ" numeric_readout=3.20
compound="CCOCCP(CCOC)CCP(CCOC)CCOCC (centres unmarked)" measurement_units="% Injected dose/organ" numeric_readout=0.73

Could you report Blood for every entry in the following list?
1. FC(F)(F)COCCCP(CCCOCC(F)(F)F)CCP(CCCOCC(F)(F)F)CCCOCC(F)(F)F
2. CCOCCP(CCOCCF)CCP(CCOCC)CCOCCF (centres unmarked)
3. CCOCCP(CCCP(CCOCC)CCOCC)CCOCC
4. CCOCCP(CCOC(C)C)CCP(CCOCC)CCOC(C)C (centres unmarked)
5. CCOC(CCP(CCC(OCC)OCC)CCP(CCC(OCC)OCC)CCC(OCC)OCC)OCC
6. COC(C)CP(CCP(CC(C)OC)CC(C)OC)CC(C)OC (centres unmarked)

Result:
1: 7.59; 2: 0.38; 3: 4.56; 4: 1.22; 5: 1.52; 6: 1.93

Record Blood per entry; entries follow.
1. CCOC(C)CP(CCP(CC(C)OCC)CC(C)OCC)CC(C)OCC (centres unmarked)
2. C1COC(CP(CCCP(CC2CCCO2)CC2CCCO2)CC2CCCO2)C1 (centres unmarked)
3. CCOC=CP(C=COCC)CCP(C=COCC)C=COCC
4. C1OCC(CP(CCP(CC2COCO2)CC2COCO2)CC2COCO2)O1 (centres unmarked)

Result:
[1.77, 1.44, 3.26, 1.14]

----------
Task for the reader: assign each of the following compounds its reported Liver.
assay-notes: Rat biodistribution of Tc-99m complexes
test-context: 60 min p.i.
One number for each entry, in % Injected dose/organ.

The following compounds have reported results that may help.
compound="CCOCC(COCC)CP(CCP(CC(COCC)COCC)CC(COCC)COCC)CC(COCC)COCC [Compound 18]" measurement_units="% Injected dose/organ" numeric_readout=36.0
compound="C1COC(CP(CCCP(CC2CCCO2)CC2CCCO2)CC2CCCO2)C1 (stereo not drawn) [Compound 35]" measurement_units="% Injected dose/organ" numeric_readout=10.7
compound="CCOCCP(CCOC)CCP(CCOC)CCOCC (stereo not drawn) [Compound 28]" measurement_units="% Injected dose/organ" numeric_readout=2.94

Would you mind giving Liver for every compound in the list below?
1. CCOCC[P+]1(CCOCC)CC[P+](CCOCC)(CCOCC)[Tc-3]12(=[O])(=[O])[P+](CCOCC)(CCOCC)CC[P+]2(CCOCC)CCOCC [[TcO2 (P53)2]^+]
2. COCCCP(CCCOC)CCP(CCCOC)CCCOC [Compound 3]
3. CCOCCP(CCOCC)CC(CP(CCOCC)CCOCC)OC [Compound 36]
4. COCCP(CCOC)CCP(CCOC)CCOC [Compound 2]
5. C1COC(CP(CCP(CC2CCCO2)CC2CCCO2)CC2CCCO2)C1 (stereo not drawn) [Compound 24]
6. CCOCCP(CCOCC)CCP(CCOCC)CCOCC [Compound 1, (EtOC2 H4)2 P--C2 H4 --P(C2 H4 OEt)2]

Result:
[1.62, 1.35, 6.64, 2.37, 8.56, 1.62]

----------
Exercise: for every item that follows, state its recorded Heart/Blood Counts/Gram Ratio.
assay-notes: Rat biodistribution of Tc-99m complexes
test-context: 60 min p.i.
One number for each entry.

compound=COCCCP(CCCOC)CCP(CCCOC)CCCOC numeric_readout=1.82
compound=CCOC(CCP(CCC(OCC)OCC)CCP(CCC(OCC)OCC)CCC(OCC)OCC)OCC numeric_readout=7.9

Query: # Heart/Blood Counts/Gram Ratio lookup, item COCC(C)CP(CCP(CC(C)COC)CC(C)COC)CC(C)COC (stereo not drawn)
Result: 0.7
